Target: CYP2C8 (Homo sapiens, UniProt P10632)
Sequence (P10632 whole entry): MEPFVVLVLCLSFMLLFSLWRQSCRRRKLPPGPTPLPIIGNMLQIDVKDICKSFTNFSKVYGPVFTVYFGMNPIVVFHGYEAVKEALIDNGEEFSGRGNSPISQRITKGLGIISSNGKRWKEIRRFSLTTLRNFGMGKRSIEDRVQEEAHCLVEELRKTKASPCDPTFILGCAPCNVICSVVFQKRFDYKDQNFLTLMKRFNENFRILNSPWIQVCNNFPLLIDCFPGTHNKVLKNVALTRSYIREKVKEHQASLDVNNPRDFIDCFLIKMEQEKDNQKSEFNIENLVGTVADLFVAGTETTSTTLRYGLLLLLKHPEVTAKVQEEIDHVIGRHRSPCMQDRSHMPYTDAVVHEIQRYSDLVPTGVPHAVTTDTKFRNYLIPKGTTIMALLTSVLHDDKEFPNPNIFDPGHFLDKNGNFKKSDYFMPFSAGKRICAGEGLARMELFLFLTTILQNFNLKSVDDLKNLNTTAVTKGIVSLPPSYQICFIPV
Assay: Time dependent inhibition of CYP2C8 in human liver microsomes assessed as enzyme remaining activity using cocktail of probe CYP as substrate at 50 uM
Format: ADME
Conditions: probe cocktail of CYP probe substrates, read-out: Activity
assay endpoint: activity at 50 µM

Jot down activity at 50 µM (CYP2C8 (Homo sapiens, UniProt P10632)) of `Cc1ccc(-n2c(=O)c(C(=O)Nc3ccc(Oc4ncnc5c4CCN(CC4CCN(C)CC4)C5)c(F)c3)cn(C3CCCC3)c2=O)nc1` . 84%

====

Provide the reported pIC50 of each item.
Biological target: Tyrosine-protein kinase receptor UFO (Homo sapiens)
Sequence (P30530 whole entry): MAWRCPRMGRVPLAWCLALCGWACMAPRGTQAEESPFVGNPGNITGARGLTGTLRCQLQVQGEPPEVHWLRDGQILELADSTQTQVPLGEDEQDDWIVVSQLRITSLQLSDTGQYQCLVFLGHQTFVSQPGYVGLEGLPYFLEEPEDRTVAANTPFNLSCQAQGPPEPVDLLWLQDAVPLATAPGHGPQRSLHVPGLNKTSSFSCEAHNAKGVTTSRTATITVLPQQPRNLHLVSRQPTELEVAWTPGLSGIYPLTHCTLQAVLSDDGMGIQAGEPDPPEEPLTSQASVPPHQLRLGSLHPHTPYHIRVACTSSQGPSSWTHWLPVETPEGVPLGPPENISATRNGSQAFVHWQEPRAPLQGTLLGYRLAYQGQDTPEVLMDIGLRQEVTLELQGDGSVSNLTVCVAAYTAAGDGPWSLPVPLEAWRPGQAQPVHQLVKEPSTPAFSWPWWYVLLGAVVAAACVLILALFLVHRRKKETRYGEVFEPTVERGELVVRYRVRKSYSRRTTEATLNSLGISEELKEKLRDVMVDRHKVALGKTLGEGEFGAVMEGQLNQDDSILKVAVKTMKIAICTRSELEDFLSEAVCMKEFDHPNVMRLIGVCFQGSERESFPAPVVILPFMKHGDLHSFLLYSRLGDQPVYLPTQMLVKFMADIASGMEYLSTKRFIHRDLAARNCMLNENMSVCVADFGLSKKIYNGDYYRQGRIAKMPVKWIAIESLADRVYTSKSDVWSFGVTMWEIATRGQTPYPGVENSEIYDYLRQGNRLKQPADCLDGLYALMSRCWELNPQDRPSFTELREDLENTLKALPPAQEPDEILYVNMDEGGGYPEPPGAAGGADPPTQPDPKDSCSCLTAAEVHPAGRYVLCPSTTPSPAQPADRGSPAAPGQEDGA
Numbers only, as −log10 of the molar value.

>>> df
                              smiles_record  measured_value
0  CC(C)n1cc(C(=O)Nc2ccc(Oc3ncnc4c3CCN(CC(=O)N3CCC3)C4)c(F)c2)c(=O)n(-c2ccc(F)cc2)c1=O            7.85

For each listed entry, give its pIC50.
1. CN1CCC(CN2CCc3c(ncnc3Oc3ccc(NC(=O)c4cn(CC5CC5)c(=O)n(-c5ccc(F)cc5)c4=O)cc3F)C2)CC1
2. CC(C)n1cc(C(=O)Nc2ccc(Oc3ncnc4c3CN(C(=O)CN3CCOCC3)C4)c(F)c2)c(=O)n(-c2ccc(F)cc2)c1=O

1: 8.72; 2: 7.80

For each listed entry, give its pIC50.
1. CC(C)n1cc(C(=O)Nc2ccc(Oc3ncnc4c3CCN(C(=O)CCN3CCCC3)C4)c(F)c2)c(=O)n(-c2ccc(F)cc2)c1=O
2. Cc1ccc(-n2c(=O)c(C(=O)Nc3ccc(Oc4ncnc5c4CCN(CC4CCN(C)CC4)C5)c(F)c3)cn(C3CCCC3)c2=O)nc1
3. CC(C)n1cc(C(=O)Nc2ccc(Oc3ncnc4c3CCN(CC3CN(C)C3)C4)c(F)c2)c(=O)n(-c2ccc(F)cc2)c1=O
4. CC(C)n1cc(C(=O)Nc2ccc(Oc3ncnc4c3CC(=O)N4)c(F)c2)c(=O)n(-c2ccc(F)cc2)c1=O
5. Cc1ccc(-n2c(=O)c(C(=O)Nc3ccc(Oc4ncnc5c4CCN(CC4CCN(C)CC4)C5)c(F)c3)cn(CC3CC3)c2=O)nc1
6. CC(C)n1cc(C(=O)Nc2ccc(Oc3ncnc4c3CN(CC3CCN(C)CC3)C4)c(F)c2)c(=O)n(-c2ccc(F)cc2)c1=O
7. CC(C)n1cc(C(=O)Nc2ccc(Oc3ncnc4c3CCN(C(=O)CC3CCN(C)CC3)C4)c(F)c2)c(=O)n(-c2ccc(F)cc2)c1=O
8. CN1CCC(CN2CCc3c(ncnc3Oc3ccc(NC(=O)c4cn(C5CC5)c(=O)n(-c5ccc(F)cc5)c4=O)cc3F)C2)CC1

[8.11, 8.28, 8.20, 7.59, 8.28, 8.21, 8.37, 7.49]

====

assay: Tmax in CAnN.Cg-Foxnlnu/CrlCrlj mouse plasma at 100 mg/kg, po single dose measured up to 24 hrs by liquid chromatography tandem mass spectrometry; format: ADME, organism-based
assay endpoint: Tmax (h)
Give bare numbers, in h.

For the compound `Cc1ccc(-n2c(=O)c(C(=O)Nc3ccc(Oc4ncnc5c4CCN(CC4CCN(C)CC4)C5)c(F)c3)cn(C3CCCC3)c2=O)nc1` , give its reported Tmax. 1

====

target: Tyrosine-protein kinase receptor UFO (Mus musculus, UniProt Q00993); experiment: Inhibition of Axl in mouse BaF3 cells
Sequence (Q00993 whole entry): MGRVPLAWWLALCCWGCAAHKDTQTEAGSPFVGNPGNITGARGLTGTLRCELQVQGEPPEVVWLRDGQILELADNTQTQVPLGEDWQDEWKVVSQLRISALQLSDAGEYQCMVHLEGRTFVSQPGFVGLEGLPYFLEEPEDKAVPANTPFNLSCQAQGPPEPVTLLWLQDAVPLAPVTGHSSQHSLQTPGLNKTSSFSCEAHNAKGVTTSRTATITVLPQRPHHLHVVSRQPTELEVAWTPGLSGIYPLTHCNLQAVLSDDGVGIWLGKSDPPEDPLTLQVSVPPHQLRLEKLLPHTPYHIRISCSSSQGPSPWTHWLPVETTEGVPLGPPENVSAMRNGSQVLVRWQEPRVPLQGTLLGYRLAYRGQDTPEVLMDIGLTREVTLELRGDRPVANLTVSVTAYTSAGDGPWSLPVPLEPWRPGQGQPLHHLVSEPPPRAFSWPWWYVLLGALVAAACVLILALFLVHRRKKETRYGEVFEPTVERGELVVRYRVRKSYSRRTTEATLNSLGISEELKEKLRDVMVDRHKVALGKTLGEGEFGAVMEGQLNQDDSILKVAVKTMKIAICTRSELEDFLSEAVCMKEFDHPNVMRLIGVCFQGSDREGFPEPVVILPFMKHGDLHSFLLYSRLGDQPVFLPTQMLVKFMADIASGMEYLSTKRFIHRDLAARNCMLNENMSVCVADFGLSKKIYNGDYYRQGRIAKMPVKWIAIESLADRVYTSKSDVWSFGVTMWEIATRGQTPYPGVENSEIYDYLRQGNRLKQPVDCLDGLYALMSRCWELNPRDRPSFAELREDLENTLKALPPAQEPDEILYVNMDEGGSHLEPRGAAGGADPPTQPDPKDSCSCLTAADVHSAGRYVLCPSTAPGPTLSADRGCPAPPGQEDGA
assay endpoint: IC50 (nM)
Answers are plain numbers, in nM.

Consider the following illustrative entries.
                              smiles_record  assay_endpoint  measured_value
0  CC(C)n1cc(C(=O)Nc2ccc(Oc3ncnc4c3CN(C)C4)c(F)c2)c(=O)n(-c2ccc(F)cc2)c1=O            IC50             220
1  CN1CCC(CN2CCc3c(ncnc3Oc3ccc(NC(=O)c4cn(CC5CC5)c(=O)n(-c5ccc(F)cc5)c4=O)cc3F)C2)CC1            IC50             8.4
2  CC(C)n1cc(C(=O)Nc2ccc(Oc3ncnc4c3CN(C)CC4)c(F)c2)c(=O)n(-c2ccc(F)cc2)c1=O            IC50             150

Query compound follows.
For the compound `CC(C)n1cc(C(=O)Nc2ccc(Oc3ncnc4c3CN(C(=O)CN3CCOCC3)C4)c(F)c2)c(=O)n(-c2ccc(F)cc2)c1=O` , give its reported IC50. 270

====

Provide the reported IC50 of each item.
target: Tyrosine-protein kinase receptor UFO (Mus musculus, UniProt Q00993); assay: Inhibition of Axl in mouse BaF3 cells
Numbers only, in nM.

In [3]: df
Out[3]:
                              smiles_record  measured_value
0  CC(C)n1cc(C(=O)Nc2ccc(Oc3ncnc4c3CCN(CC(=O)N3CCC3)C4)c(F)c2)c(=O)n(-c2ccc(F)cc2)c1=O              66
1  CC(C)n1cc(C(=O)Nc2ccc(Oc3ncnc4c3CN(CC3CCOCC3)C4)c(F)c2)c(=O)n(-c2ccc(F)cc2)c1=O              93
2  CC(C)n1cc(C(=O)Nc2ccc(Oc3ncnc4c3CCN(C(=O)C3CCC3)C4)c(F)c2)c(=O)n(-c2ccc(F)cc2)c1=O             100

For the molecule `CC(C)n1cc(C(=O)Nc2ccc(Oc3ncnc4c3CCN(CC3CCN(C)CC3)C4)c(F)c2)c(=O)n(-c2ccc(F)cc2)c1=O` , give its reported IC50. 15

====

target: CYP2D6 (Homo sapiens, UniProt P10635); assay: Time dependent inhibition of CYP2D6 in human liver microsomes assessed as enzyme remaining activity using cocktail of probe CYP as substrate at 50 uM; assay type: ADME; settings: probe cocktail of CYP probe substrates, read-out: Activity
Sequence (P10635 whole entry): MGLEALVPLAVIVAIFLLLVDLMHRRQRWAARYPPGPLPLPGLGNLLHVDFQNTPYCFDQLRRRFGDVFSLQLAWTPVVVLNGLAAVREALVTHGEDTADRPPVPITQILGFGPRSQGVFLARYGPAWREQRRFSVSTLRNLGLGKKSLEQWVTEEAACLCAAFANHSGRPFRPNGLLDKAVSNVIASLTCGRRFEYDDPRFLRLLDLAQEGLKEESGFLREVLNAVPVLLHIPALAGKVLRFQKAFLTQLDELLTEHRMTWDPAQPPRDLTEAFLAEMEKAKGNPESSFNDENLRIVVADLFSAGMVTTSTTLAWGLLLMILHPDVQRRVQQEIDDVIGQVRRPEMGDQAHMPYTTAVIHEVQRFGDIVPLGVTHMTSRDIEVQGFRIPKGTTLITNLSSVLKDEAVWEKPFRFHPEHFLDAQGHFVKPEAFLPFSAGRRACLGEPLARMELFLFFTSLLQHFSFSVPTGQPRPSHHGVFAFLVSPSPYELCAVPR
assay endpoint: activity at 50 µM (%)
Numbers only, in %.

Jot down activity at 50 µM (CYP2D6 (Homo sapiens, UniProt P10635)) of `Cc1ccc(-n2c(=O)c(C(=O)Nc3ccc(Oc4ncnc5c4CCN(CC4CCN(C)CC4)C5)c(F)c3)cn(C3CCCC3)c2=O)nc1` . 83

Provenance of the data: ChEMBL document CHEMBL4823291
